target system: T1, human SIRPα v3-Fc (SIRPα3 extracellular domain fused to human IGHG1_Fc) (human, UniProt P78324 31-373; P0DOX5 223-449 = IgG part)
T1 construct: as m38; also called V3 (e.g. SIRPα3)
procedure details: BLI Octet, antigen-Fc on biosensor;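 also: antigen captured on the biosensor tip and then immersed in solutions of the test antibodies, which act as the analyte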

{"binder": "SIRPAB-8 (antibody, human IgG1, kappa, V domains shown) VH: QVQLVQSGAEVKKPGASVKVSCKASGYTFTSYGISWVRQAPGQGLEWMGWISPYNGNTNYAQKLQGRVTMTTDTSTSTAYMELRSLRSDDTAVYYCAREAGSSWYDFDLWGRGTLVTVSS VL: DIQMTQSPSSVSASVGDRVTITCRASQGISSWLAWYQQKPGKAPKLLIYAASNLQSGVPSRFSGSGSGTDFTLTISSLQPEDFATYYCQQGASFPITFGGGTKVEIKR", "koff, s⁻¹": 0.0226}
{"binder": "SIRPAB-13 (antibody, human IgG1, kappa, V domains shown) VH: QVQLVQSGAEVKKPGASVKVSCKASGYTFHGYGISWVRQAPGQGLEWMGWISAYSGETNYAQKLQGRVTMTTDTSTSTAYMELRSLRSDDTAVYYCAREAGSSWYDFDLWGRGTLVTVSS VL: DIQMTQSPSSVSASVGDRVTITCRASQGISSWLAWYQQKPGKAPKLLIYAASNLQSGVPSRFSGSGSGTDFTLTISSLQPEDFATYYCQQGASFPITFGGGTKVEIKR", "koff, s⁻¹": 0.000965}

All figures here come from patent US20200102387A1.
